For each of the molecules below, state its IC50.
# Tested on: HCC827 (exon 19 deletion mutation)
# assayExplanation: Cell antiproliferative assay (CTG, 72 h), HCC827
# Type: cell-based, human
# conditionNotes: Homo sapiens, HCC827, 72 h, Table 2, HCC827 cells

A selection of reference data follows.
COc1cc(N2CCN(C(=O)CN3CCC(c4cccc(NC5CCC(=O)NC5=O)c4)CC3)CC2)ccc1Nc1ncc(Cl)c(Nc2ccccc2C(C)=O)n1 (stereo not shown) = ≥ 1000 nM
COc1cc(N2CCN(C(=O)CN3CCC(c4ccc(NC5CCC(=O)NC5=O)cc4)CC3)CC2)ccc1Nc1ncc(Br)c(Nc2cccc3c2C(=O)NC3)n1 (stereo not shown) = 10 to 100 nM
COc1cc(N2CCN(C(=O)CN3CCC(c4ccc(NC5CCC(=O)NC5=O)cc4)CC3)CC2)ccc1Nc1ncc(Cl)c(Nc2ccccc2)n1 (stereo not shown) = 100 to 1000 nM
COc1cc(N2CCN(C(=O)CN3CCC(c4ccc(NC5CCC(=O)NC5=O)cc4)CC3)CC2)c(C)cc1Nc1ncc(Cl)c(Nc2ccccc2C(=O)N(C)C)n1 (stereo not shown) = 100 to 1000 nM
COc1cc(N2CCC(NC(=O)CN3CCC(c4ccc(NC5CCC(=O)NC5=O)cc4)CC3)CC2)ccc1Nc1ncc(Cl)c(Nc2ccccc2C(C)=O)n1 (stereo not shown) = 100 to 1000 nM
C=CC(=O)Nc1cc(Nc2nccc(-c3cn(C)c4ccccc34)n2)c(OC)cc1N(C)CCN(C)CC(=O)N1CCC(c2ccc(NC3CCC(=O)NC3=O)cc2)CC1 (stereo not shown) = 100 to 1000 nM

The following molecules each have a reported value; give each one's IC50.
1. CNC(=O)c1ccccc1Nc1nc(Nc2cc(C)c(N3CCN(C(=O)CN4CCC(c5ccc(NC6CCC(=O)NC6=O)cc5)CC4)C(C)C3)cc2OC)ncc1Cl (stereo not shown)
2. COc1cc(N2CCN(C(=O)CN3CCC(c4ccc5c(N6CCC(=O)NC6=O)nn(C)c5c4)CC3)CC2)ccc1Nc1ncc(Cl)c(Nc2ccccc2)n1
3. CNC(=O)c1ccccc1Nc1nc(Nc2ccc(N3CCN(C(=O)CN4CCC(c5ccc(NC6CCC(=O)NC6=O)cc5F)CC4)CC3)cc2OC)ncc1Br (stereo not shown)
4. COc1cc(N2CCN(C(=O)CN3CCC(c4ccc(NC5CCC(=O)NC5=O)cc4)CC3)CC2)c(C#N)cc1Nc1ncc(Cl)c(Nc2ccccc2C(C)=O)n1 (stereo not shown)
5. CC(=O)c1ccccc1Nc1nc(Nc2ccc(N3CCN(C(=O)CN4CCC(c5ccc(NC6CCC(=O)NC6=O)cc5)CC4)CC3)cc2OC(C)C)ncc1Cl (stereo not shown)

1: 10 to 100 nM; 2: ≥ 1000 nM; 3: 10 to 100 nM; 4: 10 to 100 nM; 5: ≥ 1000 nM

The following molecules each have a reported value; give each one's IC50.
1. CNC(=O)c1ccccc1Nc1nc(Nc2ccc(N3CCN(C(=O)CN4CCC(c5ccc(NC6CCC(=O)NC6=O)cc5)CC4)CC3)cc2OC)ncc1Br (stereo not shown)
2. COc1cc(N2CCN(C(=O)CN3CCC(c4ccc(NC5CCC(=O)NC5=O)cc4)CC3)CC2)ccc1Nc1ncc(Cl)c(Nc2ccccc2C(C)(C)O)n1 (stereo not shown)

10 to 100 nM
100 to 1000 nM

src = patent US20250129086A1
